assay_info: in vivo
Parameters: species or system BALB/c nu/nu female mice
experimental_conditions: female, BALB/c nu/nu, mouse, iv, 40 pmol, total radioactivity, Bone uptake
measurement_name: tissue uptake at 24 h (%ID/g)
Answers are plain numbers, in %ID/g.

Per the record, CCNC(=O)[C@H](CC(C)C)NC(=O)[C@H](Cc1c[nH]cn1)NC(=O)CN(C)C(=O)[C@@H](NC(=O)[C@H](C)NC(=O)[C@H](Cc1c[nH]c2ccccc12)NC(=O)[C@H](CCC(N)=O)NC(=O)[C@@H](Cc1ccccc1)NC(=O)COCC(=O)Nc1ccc(CNC(=O)CCC(C(=O)O)N2CCN(CC(=O)O)CCN(CC(=O)O)CCN(CC(=O)O)CC2)cc1)C(C)C (stereo partly shown) [[^111In]In-AU-SAR-M1, metal not drawn] has tissue uptake at 24 h of 0.04

----------
Please go through the items and note down their tissue uptake at 4 h.
assay_info: in vivo
Design: species or system BALB/c nu/nu female mice
experimental_conditions: female, BALB/c nu/nu, mouse, iv, 40 pmol, total radioactivity, Muscle uptake
One number for each entry, in %ID/g.

Worked cases, tissue uptake at 4 h given:
So, CCNC(=O)[C@H](CC(C)C)NC(=O)[C@H](Cc1c[nH]cn1)NC(=O)CN(C)C(=O)[C@@H](NC(=O)[C@H](C)NC(=O)[C@H](Cc1c[nH]c2ccccc12)NC(=O)[C@H](CCC(N)=O)NC(=O)[C@@H](Cc1ccccc1)NC(=O)COCC(=O)Nc1ccc(CNC(=O)CCC(C(=O)O)N2CCN(CC(=O)O)CCN(CC(=O)O)CCN(CC(=O)O)CC2)cc1)C(C)C (stereo partly drawn) [[^111In]In-AU-SAR-M1, metal not drawn] ? Its tissue uptake at 4 h was 0.09

// tissue uptake at 4 h lookup, compound = CCNC(=O)[C@H](CC(C)C)NC(=O)[C@H](Cc1c[nH]cn1)NC(=O)CN(C)C(=O)[C@@H](NC(=O)[C@H](C)NC(=O)[C@H](Cc1c[nH]c2ccccc12)NC(=O)[C@H](CCC(N)=O)NC(=O)[C@@H](Cc1ccccc1)NC(=O)COCC(=O)Nc1ccc(CNC(=O)[C@H](CCCNC(=N)N)NC(=O)CCC(C(=O)O)N2CCN(CC(=O)O)CCN(CC(=O)O)CCN(CC(=O)O)CC2)cc1)C(C)C (stereo partly drawn) [[^111In]In-AU-SAR-M2, [^111In]In-[DOTAGA-Arg]AU-SAR-M1, metal not drawn] , result: 0.09

Further cases:
The recorded tissue uptake at 4 h for entry CCNC(=O)[C@H](CC(C)C)NC(=O)[C@H](Cc1c[nH]cn1)NC(=O)CN(C)C(=O)[C@@H](NC(=O)[C@H](C)NC(=O)[C@H](Cc1c[nH]c2ccccc12)NC(=O)[C@H](CCC(N)=O)NC(=O)[C@@H](Cc1ccccc1)NC(=O)COCC(=O)Nc1ccc(CNC(=O)[C@@H](CCCNC(=N)N)NC(=O)CCC(C(=O)O)N2CCN(CC(=O)O)CCN(CC(=O)O)CCN(CC(=O)O)CC2)cc1)C(C)C (stereo partly drawn) [[^111In]In-AU-SAR-M3, [^111In]In-[DOTAGA-DArg]AU-SAR-M1, metal not drawn] equals 0.07

----------
assay_info: in vivo
Design: species or system BALB/c nu/nu female mice
experimental_conditions: female, BALB/c nu/nu, mouse, iv, 40 pmol, total radioactivity, Lungs uptake
measurement_name: tissue uptake at 24 h (%ID/g)
Numbers only, in %ID/g.

// recorded tissue uptake at 24 h for CCNC(=O)[C@H](CC(C)C)NC(=O)[C@H](Cc1c[nH]cn1)NC(=O)CN(C)C(=O)[C@@H](NC(=O)[C@H](C)NC(=O)[C@H](Cc1c[nH]c2ccccc12)NC(=O)[C@H](CCC(N)=O)NC(=O)[C@@H](Cc1ccccc1)NC(=O)COCC(=O)Nc1ccc(CNC(=O)CCC(C(=O)O)N2CCN(CC(=O)O)CCN(CC(=O)O)CCN(CC(=O)O)CC2)cc1)C(C)C (stereo partly shown) [[^111In]In-AU-SAR-M1, metal not drawn] : 0.04

----------
assay_info: in vivo
Parameters: species or system BALB/c nu/nu female mice
experimental_conditions: female, BALB/c nu/nu, mouse, iv, 40 pmol, total radioactivity, Tumor-to-lungs ratio
measurement_name: tissue to tissue ratio at 24 h
Give bare numbers.

Reported tissue to tissue ratio at 24 h for CCNC(=O)[C@H](CC(C)C)NC(=O)[C@H](Cc1c[nH]cn1)NC(=O)CN(C)C(=O)[C@@H](NC(=O)[C@H](C)NC(=O)[C@H](Cc1c[nH]c2ccccc12)NC(=O)[C@H](CCC(N)=O)NC(=O)[C@@H](Cc1ccccc1)NC(=O)COCC(=O)Nc1ccc(CNC(=O)CCC(C(=O)O)N2CCN(CC(=O)O)CCN(CC(=O)O)CCN(CC(=O)O)CC2)cc1)C(C)C (stereo partly shown) [[^111In]In-AU-SAR-M1, metal not drawn] was 174

----------
assay_info: in vivo
Parameters: species or system BALB/c nu/nu female mice
experimental_conditions: female, BALB/c nu/nu, mouse, iv, 40 pmol, total radioactivity, GI (gastrointestinal tract) uptake
Experimental: Animal experiments were planned and performed in accordance with national legislation on protection of laboratory animals, and protocols were approved by the Ethics Committee for Animal Research in Uppsala, Sweden (5.8.18–00473/2021). BALB/c nu/nu female mice were xenografted by subcutaneous injection of PC-3 cells on the hind leg (7 × 10^6 cells/mouse). […] Tumors and relevant organs were collected, weighted and sample radioactivity was measured using the gamma counter. […]
Give measured tissue uptake dose at 4 h for each item. Keep answers brief.
One number for each entry, in %ID.

// known answers, use as guide
For record CCNC(=O)[C@H](CC(C)C)NC(=O)[C@H](Cc1c[nH]cn1)NC(=O)CN(C)C(=O)[C@@H](NC(=O)[C@H](C)NC(=O)[C@H](Cc1c[nH]c2ccccc12)NC(=O)[C@H](CCC(N)=O)NC(=O)[C@@H](Cc1ccccc1)NC(=O)COCC(=O)Nc1ccc(CNC(=O)[C@H](CCCNC(=N)N)NC(=O)CCC(C(=O)O)N2CCN(CC(=O)O)CCN(CC(=O)O)CCN(CC(=O)O)CC2)cc1)C(C)C (stereo partly drawn) [[^111In]In-AU-SAR-M2, [^111In]In-[DOTAGA-Arg]AU-SAR-M1, metal not drawn] the listed tissue uptake dose at 4 h is 2.9

The measured tissue uptake dose at 4 h associated with CCNC(=O)[C@H](CC(C)C)NC(=O)[C@H](Cc1c[nH]cn1)NC(=O)CN(C)C(=O)[C@@H](NC(=O)[C@H](C)NC(=O)[C@H](Cc1c[nH]c2ccccc12)NC(=O)[C@H](CCC(N)=O)NC(=O)[C@@H](Cc1ccccc1)NC(=O)COCC(=O)Nc1ccc(CNC(=O)[C@@H](CCCNC(=N)N)NC(=O)CCC(C(=O)O)N2CCN(CC(=O)O)CCN(CC(=O)O)CCN(CC(=O)O)CC2)cc1)C(C)C (stereo partly drawn) [[^111In]In-AU-SAR-M3, [^111In]In-[DOTAGA-DArg]AU-SAR-M1, metal not drawn] reads 0.7

Please turn your attention to the following entry.
Value of measured tissue uptake dose at 4 h for the entry CCNC(=O)[C@H](CC(C)C)NC(=O)[C@H](Cc1c[nH]cn1)NC(=O)CN(C)C(=O)[C@@H](NC(=O)[C@H](C)NC(=O)[C@H](Cc1c[nH]c2ccccc12)NC(=O)[C@H](CCC(N)=O)NC(=O)[C@@H](Cc1ccccc1)NC(=O)COCC(=O)Nc1ccc(CNC(=O)CCC(C(=O)O)N2CCN(CC(=O)O)CCN(CC(=O)O)CCN(CC(=O)O)CC2)cc1)C(C)C (stereo partly drawn) [[^111In]In-AU-SAR-M1, metal not drawn] : 2

----------
assay_info: in vivo
Parameters: species or system BALB/c nu/nu female mice
experimental_conditions: female, BALB/c nu/nu, mouse, iv, 40 pmol, total radioactivity, Tumor uptake
Description: Animal experiments were planned and performed in accordance with national legislation on protection of laboratory animals, and protocols were approved by the Ethics Committee for Animal Research in Uppsala, Sweden (5.8.18–00473/2021). BALB/c nu/nu female mice were xenografted by subcutaneous injection of PC-3 cells on the hind leg (7 × 10^6 cells/mouse). […] Tumors and relevant organs were collected, weighted and sample radioactivity was measured using the gamma counter. […]
measurement_name: tissue uptake at 4 h (%ID/g)
Numbers only, in %ID/g.

Examples with their reported tissue uptake at 4 h follow.
Recorded result, CCNC(=O)[C@H](CC(C)C)NC(=O)[C@H](Cc1c[nH]cn1)NC(=O)CN(C)C(=O)[C@@H](NC(=O)[C@H](C)NC(=O)[C@H](Cc1c[nH]c2ccccc12)NC(=O)[C@H](CCC(N)=O)NC(=O)[C@@H](Cc1ccccc1)NC(=O)COCC(=O)Nc1ccc(CNC(=O)CCC(C(=O)O)N2CCN(CC(=O)O)CCN(CC(=O)O)CCN(CC(=O)O)CC2)cc1)C(C)C (stereo partly drawn) [[^111In]In-AU-SAR-M1, metal not drawn] , tissue uptake at 4 h: 11

So, CCNC(=O)[C@H](CC(C)C)NC(=O)[C@H](Cc1c[nH]cn1)NC(=O)CN(C)C(=O)[C@@H](NC(=O)[C@H](C)NC(=O)[C@H](Cc1c[nH]c2ccccc12)NC(=O)[C@H](CCC(N)=O)NC(=O)[C@@H](Cc1ccccc1)NC(=O)COCC(=O)Nc1ccc(CNC(=O)[C@H](CCCNC(=N)N)NC(=O)CCC(C(=O)O)N2CCN(CC(=O)O)CCN(CC(=O)O)CCN(CC(=O)O)CC2)cc1)C(C)C (stereo partly drawn) [[^111In]In-AU-SAR-M2, [^111In]In-[DOTAGA-Arg]AU-SAR-M1, metal not drawn] ? Its tissue uptake at 4 h was 12.7

Now examine the next entry.
In plain terms, CCNC(=O)[C@H](CC(C)C)NC(=O)[C@H](Cc1c[nH]cn1)NC(=O)CN(C)C(=O)[C@@H](NC(=O)[C@H](C)NC(=O)[C@H](Cc1c[nH]c2ccccc12)NC(=O)[C@H](CCC(N)=O)NC(=O)[C@@H](Cc1ccccc1)NC(=O)COCC(=O)Nc1ccc(CNC(=O)[C@@H](CCCNC(=N)N)NC(=O)CCC(C(=O)O)N2CCN(CC(=O)O)CCN(CC(=O)O)CCN(CC(=O)O)CC2)cc1)C(C)C (stereo partly drawn) [[^111In]In-AU-SAR-M3, [^111In]In-[DOTAGA-DArg]AU-SAR-M1, metal not drawn] has a documented tissue uptake at 4 h of 6.7
